Catalogue of compounds with associated activation
# Tested on: DAF-12 nuclear receptor (Haemonchus contortus)
# protocol.notes: hcDAF-12 driven luciferase reporter activation – cell-based, luminescence, HEK293, lit1-tk-luc reporter, primary screen (AID 652067);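 further: 100% = response to 3 µM Δ7-dafachronic acid high control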
# test.context: HEK293 hcDAF-12 lit1-tk-luc reporter, at 6.8 µM, hits give high values, 0% DMSO, 100% Δ7-dafachronic acid
The campaign covered roughly 370,000 compounds. About 5,400 (1.5%) were called active. The list comes from a sample in which actives are over-represented; it also holds close analogues and randomly drawn compounds.
Form entry: value (%) — number only.

Example entries and their recorded answers appear below.
Q: Quick one: activation of COC(=O)[C@]12C[C@H](CC(=O)N3CCN(C(=O)C4CC4)CC3)C(=O)N(CCC3=CCCCC3)C1=C[C@H](C(C)C)O[C@@H]2C1CC1 ?
Ans: -1.23

Q: Quick one: activation of COc1ccc(CSc2nnc(-c3cccc(C)c3)n2C)cc1 ?
Ans: -3.02

Q: Quick one: activation of O=C(Nc1cccc(C(=O)O)c1)/C(=C\c1ccccc1)NC(=O)c1ccc(Br)o1 ?
Ans: -0.49

Q: Quick one: activation of COc1cccc(-n2c(=S)[nH]c3c(oc4ccccc43)c2=O)c1 ?
Ans: 5.86

Q: Quick one: activation of C=CCN1[C@H](CC(C)C)COc2cccc(N3CCCC3)c2S1(=O)=O ?
Ans: 1.33

---
Q: Quick one: activation of COc1cc(OC)cc(-c2nc(=S)n3ccsc3n2)c1 ?
Ans: 1.3

Q: Quick one: activation of O=C(CSc1nnc(-c2ccccn2)n1-c1ccc(Cl)cc1)Nc1ccccc1-c1ccccc1 ?
Ans: -4.12

Q: Quick one: activation of COc1ccc(C(=O)OCCN2CCN(C3CN(Cc4cn(Cc5ccccc5F)nn4)S(=O)(=O)C3)CC2)cc1OC (stereo not drawn) ?
Ans: -3.13

Q: Quick one: activation of COc1ccc(OC)c(-n2c(=S)[nH]c3cc(C(=O)N4CCCCC4)ccc3c2=O)c1 ?
Ans: -1.94

Q: Quick one: activation of CN[C@H]1C[C@H]2c3[nH]c4c(-c5ccccc5)cccc4c3CCN2C(=O)[C@H]1[C@H](C)O ?
Ans: 0.81

Q: Quick one: activation of COc1ccc(N2CCN(CCNS(=O)(=O)c3ccc(C(C)(C)C)cc3)CC2)cc1 ?
Ans: -4.56

Q: Quick one: activation of COC(=O)[C@@]12CCCCC3=C1N(CCC3)C(=O)[C@H]2CC(=O)NCc1cccc2ccccc12 ?
Ans: -2.45
